Source listed as the supplement of paper PMC10567573.

B1: ETS1 (parent)
chain: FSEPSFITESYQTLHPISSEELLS

# Variants of: B1
# ASSAY OVERVIEW: protein stability index of a GFP-peptide fusion (GPS, HEK-293T) (PSI 1-6); higher = more stable;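 also: lentivirally expressed fusions sorted by FACS into six bins by GFP to DsRed ratio, PSI derived from sequencing read proportions per bin multiplied by bin number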
# MEASUREMENT CONTEXT: c terminus: a fixed tail appended
EXPERIMENTAL ENDPOINT: protein stability index

S24C :: 1.5
E21D :: 1.74

[Q] I'd like to know its protein stability index. The variant in question is E3V
[A] 2.5

[Q] Consider the variant shown here: E3K What is its recorded protein stability index?
[A] 2.05

[Q] Please look up its protein stability index: L22A
[A] 2.04
